- System: L1210 leukemia ip in BDF1 mice, survival T/C
- measurement-notes: NCI In Vivo Anticancer Drug Screen. Data for tumor model L1210 Leukemia (intraperitoneal) in B6D2F1 (BDF1) mice
- experimental-context: endpoint: mean survival time; dose: 25.0 mg/kg/injection; schedule: Q01DX009 (ip); vehicle: saline; higher = longer survival
Inconclusive results and toxic doses are left out.
experimental-endpoint: T/C

Worked cases, answers included:
* Cl[Si](Cl)(Cl)CCc1ccccc1 | 104 % of control
* NCCCCS(=O)(=O)Nc1ccc(Nc2c3ccccc3nc3cc([N+](=O)[O-])ccc23)cc1 | 158 % of control
* CC(C)=CCNC1=NCCN1 | 94 % of control
* COc1ccc2c(c1)c(C)cc[n+]2C | 107 % of control
* CC1(C)N=C(N)N=C(N)N1c1cccc(C(=O)Nc2cccc(S(=O)(=O)F)c2)c1 | 101 % of control
* CC1(C)SC2C(NC(=O)C(C(=O)O)c3ccccc3)C(=O)N2C1C(=O)O (stereo unspecified) | 103 % of control
* C=CC(=O)NCNC(C)C (tested in a mixture with another compound) | 95 % of control
* CCN(CC)CC(=O)NCC(CCN1CCCCC1)(CC(C)C)c1cccc2ccccc12 (stereo unspecified) | 102 % of control
* Cc1cc2cc3c(=O)[nH]c(=O)nc-3n(CC(O)C(O)C(O)COP(=O)(O)O)c2cc1C (stereo unspecified) | 96 % of control
* NC(=S)/C(N)=N/Nc1ccc(Cl)cc1 | 120 % of control

Please find the next molecule below.
Data request, read-out T/C, for `CC(=O)NN=C(C)C` 102 % of control

----------
- System: L1210 leukemia ip in BDF1 mice, survival T/C
- measurement-notes: NCI In Vivo Anticancer Drug Screen. Data for tumor model L1210 Leukemia (intraperitoneal) in B6D2F1 (BDF1) mice
- experimental-context: endpoint: mean survival time; dose: 400.0 mg/kg/injection; schedule: Q04DX002 (ip); vehicle: saline; higher = longer survival
Toxic doses and inconclusive results are not listed.
Each record here notes measured T/C.

• CCN(CC)CCNc1nc(-c2cc(C(F)(F)F)cc(C(F)(F)F)c2)nc(C(Cl)(Cl)Cl)n1 = 88 % of control
• COc1ccc(CC(=O)c2ccccc2)cc1 = 104 % of control
• CC(C)(C)SCCO = 96 % of control
• O=C(/C=C/c1ccccc1)N/N=C/c1ccncc1 = 112 % of control

Please find the next molecule below.
Lab note: need T/C for `N#CCCN(CCCN1CCOCC1)CN1C(=O)c2ccccc2C1=O` on L1210 leukemia ip in BDF1 mice, survival T/C, anyone have it? 111 % of control

----------
- System: L1210 leukemia ip in BDF1 mice, survival T/C
- measurement-notes: NCI In Vivo Anticancer Drug Screen. Data for tumor model L1210 Leukemia (intraperitoneal) in B6D2F1 (BDF1) mice
- experimental-context: endpoint: mean survival time; dose: 50.0 mg/kg/injection; schedule: Q04DX003 (ip); vehicle: saline; higher = longer survival
Inconclusive results and toxic doses are left out.
experimental-endpoint: T/C

- Nc1nc(Nc2ccc(C3=NCCN3)cc2)nc(Nc2ccc(C3=NCCN3)cc2)n1: 109 % of control
- c1ccc(N(c2ccccc2)N(c2ccccc2)c2ccccc2)cc1: 89 % of control
- OCCN1CCN(CCCN2c3ccccc3CCc3ccccc32)CC1: 104 % of control
- C/C(CCCCl)=N/N=C(N)N: 103 % of control
- CC(C)=CCC/C(C)=C/CN: 92 % of control
- N#C/C(=C\c1c[nH]c2ccccc12)C(N)=O: 104 % of control

Please find the next molecule below.
Data request, read-out T/C, for `O=C(C[n+]1ccc2ccccc2c1)c1ccc(-c2ccccc2)cc1` 105 % of control

----------
- System: L1210 leukemia ip in BDF1 mice, survival T/C
- measurement-notes: NCI In Vivo Anticancer Drug Screen. Data for tumor model L1210 Leukemia (intraperitoneal) in B6D2F1 (BDF1) mice
- experimental-context: endpoint: mean survival time; dose: 50.0 mg/kg/injection; schedule: Q01DX009 (ip); vehicle: saline with Tween-80; higher = longer survival
Inconclusive results and toxic doses are left out.
Each record here notes measured T/C.

Worked cases, answers included:
* CC(C)(C)C(Br)CBr (stereo not given) | 101 % of control
* O=C(NC(=S)Nc1ccc2c(c1)C(=O)c1ccccc1C2=O)c1cccc(Br)c1 | 98 % of control
* Cc1cc2c(cc1C)C1(c3ccccc3)OC2(c2ccccc2)C(C(=O)c2ccccc2)C1C(=O)c1ccccc1 (stereo not given) | 91 % of control
* C/C=C(/Cl)c1c(C)cc(C)cc1C | 98 % of control
* COc1ccc(C)cc1NC(=O)Sc1ccc(Cl)cc1 | 117 % of control

Please find the next compound below.
Data request, read-out T/C, for CC1CC=C(/C=N\NC(=O)c2ccc[n+](C)c2)C(C)O1 (stereo not given) 96 % of control

----------
- Tested on: L1210 leukemia ip in BDF1 mice, survival T/C
- measurement-notes: NCI In Vivo Anticancer Drug Screen. Data for tumor model L1210 Leukemia (intraperitoneal) in B6D2F1 (BDF1) mice
- experimental-context: endpoint: mean survival time; dose: 150.0 mg/kg/injection; schedule: Q01DX001 (ip); vehicle: other; higher = longer survival
Toxic doses and inconclusive results are not listed.
Each record here notes measured T/C.

Worked cases, answers included:
• C[N+]1(Cc2ccccc2)CCC2(C(N)=O)CC1Cc1ccccc12 (stereo not given) = 100 % of control
• OCCSSSCCO = 115 % of control
• O=C1C=C2CCCC2CC1 (stereo not given) = 92 % of control
• CC1CCC(C(O)(C(=O)O)C2CCCCC2)CC1 (stereo not given) = 101 % of control

Please find the next compound below.
Data request, read-out T/C, for CC(C)C1=CC23CCC4C(C)(C(=O)Cl)CCCC4(C)C2CC1C1(Cl)C(=O)OC(=O)C31Cl (stereo not given) 93 % of control

----------
- System: L1210 leukemia ip in BDF1 mice, survival T/C
- measurement-notes: NCI In Vivo Anticancer Drug Screen. Data for tumor model L1210 Leukemia (intraperitoneal) in B6D2F1 (BDF1) mice
- experimental-context: endpoint: mean survival time; dose: 400.0 mg/kg/injection; schedule: Q04DX002 (ip); vehicle: saline with Tween-80; higher = longer survival
- Description: The antitumor activity of compounds was measured in mice bearing transplantable tumors. Survival or tumor size were measured and the results are expressed as the measurement made in the treated group (T) divided by the measurement made in the vehicle treated control group (C). The tumor model used in this assay is L1210 Leukemia (intraperitoneal) in B6D2F1 (BDF1) mice
Toxic doses and inconclusive results are not listed.
experimental-endpoint: T/C

- c1ccc(-c2nc(Oc3ccc(Oc4nc(-c5ccccc5)nc(-c5ccccc5)n4)cc3)nc(-c3ccccc3)n2)cc1: 97 % of control

Data request, read-out T/C, for `Cc1cccc(C2=N/C(=C\c3ccccc3)C(=O)O2)c1` 89 % of control

// same read-out, input: O=C(OC1CCOCC1OC(=O)c1ccccc1)c1ccccc1 (stereo not drawn) 96 % of control

----------
- System: L1210 leukemia ip in BDF1 mice, survival T/C
- measurement-notes: NCI In Vivo Anticancer Drug Screen. Data for tumor model L1210 Leukemia (intraperitoneal) in B6D2F1 (BDF1) mice
- experimental-context: endpoint: mean survival time; dose: 200.0 mg/kg/injection; schedule: Q04DX003 (ip); vehicle: Klucel (hydroxypropylcellulose) (HPC); higher = longer survival
Inconclusive results and toxic doses are left out. Peptide text beside a SMILES is read from it. * marks the point of attachment. Cbz = O=C(OCc1ccccc1)*
Each record here notes measured T/C.

Worked cases, answers included:
* CCN(CC)CCNc1ncnc2c1cnn2-c1ccc(Cl)cc1 | 95 % of control
* O=C(c1ccccc1)c1c2ccccc2c(-c2ccccc2)c2ccccc12 | 89 % of control
* BrCC1OCC2(CO1)COC(CBr)OC2 (centres undefined) | 104 % of control
* CSCCC(NC(=O)C(CO)NC(=O)OCc1ccccc1)C(=O)O (stereo not drawn) (Cbz-Ser-Met-OH; configuration not given here) | 97 % of control
* CCOC(=O)CSC(=S)N(C)C | 93 % of control
* O=S(=O)(Cc1cccc(C(F)(F)F)c1)c1ccccc1-n1cccc1 | 90 % of control
* CCOc1ccccc1NC(=S)NC(=O)c1cccc([N+](=O)[O-])c1 | 98 % of control
* O=C(Nc1ccccc1)c1ccc([N+](=O)[O-])cc1Cl | 95 % of control
* O=C(CCl)Nc1ccc(SSc2ccc(NC(=O)CCl)cc2)cc1 | 101 % of control
* O=C(Nc1ccc(Nc2ccncc2)cc1)c1ccc(Nc2ccnc3ccc([N+](=O)[O-])cc23)cc1 | 97 % of control

Data request, read-out T/C, for CC1c2c(ccc3c2CCC=C3)CCC1CC1=CCCc2ccc3ccccc3c21 (centres undefined) 90 % of control

// same read-out, input: `NC(=O)NNC(=O)c1ccccc1` 94 % of control

Measured values drawn from PubChem BioAssay AID248 for this set.
